Test System: SARS-CoV-2 NSP3 macrodomain (Mac1) (Severe acute respiratory syndrome coronavirus 2)
Assay type: binding
Cond: crystal soak concentration 10 mM, DMSO background map
Measured Endpoint: Hit (PanDDA run, DMSO background map)

CC(C)(O)C1C2CCC2CN1c1ncnc2[nH]ccc12 (stereo not drawn) :: TRUE
Cc1c[nH]c2ncnc(NCC3(O)CCC(O)CC3)c12 (stereo not drawn) :: TRUE
CC(C)(O)C1N(c2ncnc3[nH]ccc23)CCC1(C)C (stereo not drawn) :: TRUE

====

Give measured Kinetic solubility (uM), mean for each item. Keep answers brief.
Experiment Summary: Kinetic solubility
Cond: DMSO concentration 5%
All answers are understood in µM, so give the number only.

input: Value lookup for Kinetic solubility (uM), mean; key = CC(c1ccccc1)C(CO)Nc1ncnc2[nH]ccc12 (centres unmarked) [AVI-3669]
output: 529

input: What about this compound? C[C@H]1CCCN(c2ncnc3[nH]ccc23)[C@H]1CO [AVI-3716]
output: 523

input: Would you mind doing O=C(Nc1ccc(C(=O)N[C@H]2c3cccc(O)c3C[C@H]2C(=O)O)cc1)NC1CC1 [AVI-92, reference compound] as well?
output: 524

input: Continue with CC(C)(O)[C@H]1CCCN1c1ncnc2[nH]ccc12 [AVI-607]
output: 518

input: Thanks! And O=C1CCCN1Nc1ncnc2[nH]c3cc(F)ccc3c12 [AVI-219, reference compound] ?
output: 127

====

Experiment Summary: Microsomal stability
Assay type: in vitro ADME, mouse
Cond: Mouse microsome stability assay
Measured Endpoint: T1/2 (min), mean
Please respond with the number in min and leave the unit unwritten.

input: Item O=C1CCCN1Nc1ncnc2[nH]c3cc(F)ccc3c12 [AVI-219, reference compound] has what recorded T1/2 (min), mean?
output: 26.1

input: And `Cc1c[nH]c2ncnc(NCC3(O)CCCCC3)c12` ?
output: 7.49

input: One more compound: `CC(C)(O)[C@H]1CCCN1c1ncnc2[nH]ccc12`
output: 19

input: Try the compound CC(c1ccccc1)C(CO)Nc1ncnc2[nH]ccc12 (centres unmarked)
output: 8.3

====

Test System: SARS-CoV-2 NSP3 macrodomain (Mac1) (Severe acute respiratory syndrome coronavirus 2, UniProt P0DTD1)
Experiment Summary: biochemical
Format: binding
Cond: compound at 200 μM; mean of three to four technical replicates; read-out: % competition at 200 μM (preliminary HTRF screen)
Kindly supply the reported inhibition at 200 µM values for the records listed here.

input: Would you mind telling me what inhibition at 200 µM value was observed for `O=C(O)C(F)(F)F.OC1([C@H]2CCCN2c2ncnc3[nH]ccc23)Cc2ccccc2C1` ?
output: 100%

input: Repeat for the following compound: `CC(C)(O)[C@H]1CCCN1c1ncnc2[nH]ccc12`
output: 100%

input: Next compound: OCC1CC2(CCCC2)CN1c1ncnc2[nH]ccc12 (centres unmarked)
output: 90%

input: Try this compound too: `CC1(C)C[C@@H](CO)N(c2ncnc3[nH]ccc23)C1.O=C(O)C(F)(F)F`
output: 90%

input: Do the same for CC(CNC(=O)c1ccc2c(c1)CCC(=O)N2)C(=O)O (centres unmarked) please
output: 50%

====

What PanDDA run, DMSO background map: 1-BDC was measured for each of the following?
Test System: SARS-CoV-2 NSP3 macrodomain (Mac1) (Severe acute respiratory syndrome coronavirus 2)
Type: binding
Cond: soak concentration 10 mM, DMSO background map
# answer = number (no unit)

input: Query (molecule): CC1CC(C(=O)O)CN(C(=O)CSc2ccc(O)cc2)C1 (stereo not shown) ; field requested: PanDDA run, DMSO background map: 1-BDC
output: 0.07

input: And OCC(Cc1ccccc1)Nc1ncnc2[nH]ccc12 (stereo not shown) ?
output: 0.18

input: Also `CNc1ccc(NS(=O)(=O)c2cc3cccc(C)c3s2)cn1` , if possible.
output: 0.17

input: Now this one: `COc1ccc(NC(=O)NC2CCCC2)cc1-n1nnnc1C`
output: 0.09

input: And the next one, CC1CCN(C(=O)c2ccc3c(c2)nc(CO)n3C)CC1C(=O)O (stereo not shown) ?
output: 0.25

input: Now this one: `Cc1cc2c(=O)n(CCN3C(=O)c4ccccc4S3(=O)=O)nnc2s1`
output: 0.18

input: Now the same for `O=C(Nc1ccsc1C(=O)O)c1ccc2c(c1)OCO2`
output: 0.07

Data origin, for the record: paper PMC12118597
